# System: HS-PSS
# assayInfo: drug sensitivity score (DSS, CellTox-Green cytotoxicity, 72 h) (DSS (dimensionless)); higher = more cytotoxic; extreme values may be limits of the assay
attributeMeasured: drug sensitivity score
Lab note: jot the number down without any unit.

Example compounds with recorded drug sensitivity score:
Exercise: GET /values?readout=drug sensitivity score&item= O=C(Nc1cccnc1)N1CCC(Cc2cccc(Oc3ccc(C(F)(F)F)cn3)c2)CC1 [PF-3845] (max concentration tested 10000 nM)
Solution: 0

Exercise: What do you get for CCn1c(-c2nonc2N)nc2cnc(Oc3cccc(NC(=O)c4ccc(OCCN5CCOCC5)cc4)c3)cc21 (max concentration tested 10000 nM) ?
Solution: 0

Exercise: What do you get for Cc1ccccc1C(C(=O)NC1CCCCC1)N(C(=O)Cn1ccnc1C)c1cccc(F)c1 (centres undefined) [AGI-5198] (max concentration tested 10000 nM) ?
Solution: 0

Exercise: What do you get for COc1nc(N)nc2c1ncn2[C@@H]1O[C@H](CO)[C@@H](O)[C@@H]1O [Nelarabine] (max concentration tested 10000 nM) ?
Solution: 0

Exercise: What do you get for CCCc1cc(C)[nH]c(=O)c1CNC(=O)c1cc(-c2ccnc(N3CCN(C)CC3)c2)cc2c1cnn2C(C)C [GSK343] (max concentration tested 10000 nM) ?
Solution: 5.71

Exercise: What do you get for Cc1ncc(Cl)cc1NCc1ccc(C(=O)N[C@@H](CC2CCCC2)C(=O)NC2CC2)s1 (max concentration tested 5000 nM) ?
Solution: 0

Others:
Exercise: GET /values?readout=drug sensitivity score&item= COc1cc2c(cc1-c1c(C)noc1C)ncc1[nH]c(=O)n([C@H](C)c3ccccn3)c12 [I-BET151] (max concentration tested 10000 nM)
Solution: 0

Exercise: What do you get for COc1c(OCCCN2CCOCC2)ccc2c1N=C(NC(=O)c1cnc(N)nc1)N1CCN=C21 [Copanlisib] (max concentration tested 1000 nM) ?
Solution: 0

Exercise: What do you get for Cc1cc(-c2ncc(-c3cccnc3)cc2/C=C/c2ccccc2)cnc1-c1cccnc1 [Pyridoclax] (max concentration tested 25000 nM) ?
Solution: 0

----------
Listing: % inhibition of selected compounds
# System: S1507-2
# assayInfo: % inhibition of CellTiter-Glo viability at highest tested concentration (72 h), relative to DMSO and benzethonium chloride controls; higher = more inhibition
Please give a number only; it is taken to be in %.

Example compounds with recorded % inhibition:
Exercise: GET /values?readout=% inhibition&item= CC(=O)OC[C@H]1O[C@@H]([S-])[C@H](OC(C)=O)[C@@H](OC(C)=O)[C@@H]1OC(C)=O.CCP(CC)CC.[Au+] [Auranofin] (max concentration tested 2500 nM)
Solution: 25.1

Exercise: What do you get for CCN(CC)CCCC(C)Nc1c2ccc(Cl)cc2nc2ccc(OC)cc12 (stereo unspecified) [Mepacrine aq] (max concentration tested 50000 nM) ?
Solution: 98.5

Exercise: What do you get for Nc1ccccc1NC(=O)c1ccc(CNC(=O)OCc2cccnc2)cc1 [Entinostat] (max concentration tested 10000 nM) ?
Solution: 74.9

Exercise: What do you get for CN1CCC(COc2cnc(-c3cccc(Cn4nc(-c5cccc(C#N)c5)ccc4=O)c3)nc2)CC1 (max concentration tested 1000 nM) ?
Solution: 28.3

Exercise: What do you get for Nc1ccn([C@@H]2O[C@H](CO)[C@@H](O)C2(F)F)c(=O)n1 [Gemcitabine] (max concentration tested 1000 nM) ?
Solution: 86.1

Exercise: What do you get for Cc1cc(Nc2nc(N[C@@H](C)c3ncc(F)cn3)ncc2Cl)[nH]n1 [AZD1480] (max concentration tested 1000 nM) ?
Solution: 11.6

Exercise: What do you get for COc1cc2nccc(Oc3ccc(NC(=O)C4(C(=O)Nc5ccc(F)cc5)CC4)cc3)c2cc1OC [Cabozantinib] (max concentration tested 1000 nM) ?
Solution: 27.7

Exercise: What do you get for CO[C@H]1C[C@@H]2CC[C@@H](C)[C@@](O)(O2)C(=O)C(=O)N2CCCC[C@H]2C(=O)O[C@H]([C@H](C)C[C@@H]2CC[C@@H](OP(C)(C)=O)[C@H](OC)C2)CC(=O)[C@H](C)/C=C(\C)[C@@H](O)[C@@H](OC)C(=O)[C@H](C)C[C@H](C)/C=C/C=C/C=C/1C [Ridaforolimus] (max concentration tested 100 nM) ?
Solution: 35.9

Others:
Exercise: GET /values?readout=% inhibition&item= COc1cc2c(Oc3ccc(NC(=O)C4(C(=O)Nc5ccc(F)cc5)CC4)cc3F)ccnc2cc1OCCCN1CCOCC1 [Foretinib] (max concentration tested 1000 nM)
Solution: 58.7

Exercise: What do you get for NC1(c2ccc(-c3nc4ccn5c(=O)[nH]nc5c4cc3-c3ccccc3)cc2)CCC1 [MK-2206] (max concentration tested 1000 nM) ?
Solution: 23.8

Exercise: What do you get for Cc1nc(C(=O)NCC(=O)O)c(O)c2ccc(Oc3ccccc3)cc12 [FG-4592] (max concentration tested 10000 nM) ?
Solution: -0.77
